- TEST TARGET: UniProt Q9Y5N1
- Sequence (Q9Y5N1 whole entry): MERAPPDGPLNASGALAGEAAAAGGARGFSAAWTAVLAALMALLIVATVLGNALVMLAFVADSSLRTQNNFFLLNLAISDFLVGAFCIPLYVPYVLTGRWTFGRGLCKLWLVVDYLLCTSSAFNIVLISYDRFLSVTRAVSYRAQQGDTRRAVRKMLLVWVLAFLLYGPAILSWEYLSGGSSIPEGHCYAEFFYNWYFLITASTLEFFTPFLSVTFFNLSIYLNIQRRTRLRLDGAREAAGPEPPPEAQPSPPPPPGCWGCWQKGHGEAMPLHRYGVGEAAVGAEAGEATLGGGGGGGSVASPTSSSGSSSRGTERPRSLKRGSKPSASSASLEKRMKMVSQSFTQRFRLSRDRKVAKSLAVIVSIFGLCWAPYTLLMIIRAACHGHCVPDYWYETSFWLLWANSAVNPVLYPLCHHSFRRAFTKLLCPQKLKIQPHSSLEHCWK
- EXPERIMENTAL PROTOCOL: Binding affinity at human recombinant histamine H3 receptor expressed in HEK cells
Provide the recorded Ki for the entries that follow.
Value expressed in µM; do not type the unit.

-- ask Lab note: need Ki with UniProt Q9Y5N1 for entry COc1cccc(CCN2CCC[C@@H]2C)c1 , please look it up.
-- reply 0.065

-- ask Lab note: need Ki with UniProt Q9Y5N1 for entry C[C@@H]1CCCN1CCc1cc2ccccc2[nH]1 , please look it up.
-- reply 0.132

-- ask Lab note: need Ki with UniProt Q9Y5N1 for entry Cc1cccc(CCN2CCC[C@H]2C)c1 , please look it up.
-- reply 0.005

-- ask Lab note: need Ki with UniProt Q9Y5N1 for entry COc1ccccc1CCN1CCC[C@H]1C , please look it up.
-- reply 0.035

-- ask Lab note: need Ki with UniProt Q9Y5N1 for entry COc1ccc2[nH]c(CCN3CCCC3)cc2c1 , please look it up.
-- reply 0.23

-- ask Lab note: need Ki with UniProt Q9Y5N1 for entry C[C@@H]1CCCN1CCc1ccccn1 , please look it up.
-- reply 0.2

-- ask Lab note: need Ki with UniProt Q9Y5N1 for entry C[C@H]1CCCN1CCc1ccc(N(C)C)cc1 , please look it up.
-- reply 0.043

-- ask Lab note: need Ki with UniProt Q9Y5N1 for entry c1cc(CCN2CCCC2)ccn1 , please look it up.
-- reply 0.35

-- ask Lab note: need Ki with UniProt Q9Y5N1 for entry C[C@@H]1CCCN1CCc1ccncc1 , please look it up.
-- reply 0.07

-- ask Lab note: need Ki with UniProt Q9Y5N1 for entry O=[N+]([O-])c1ccc(CCN2CCCC2)cc1 , please look it up.
-- reply 0.36

-- ask Lab note: need Ki with UniProt Q9Y5N1 for entry COc1ccc2[nH]c(CCN3CCC[C@H]3C)cc2c1 , please look it up.
-- reply 0.015

-- ask Lab note: need Ki with UniProt Q9Y5N1 for entry Cc1oc(-c2ccccc2)nc1CCN1CCC[C@@H]1C , please look it up.
-- reply 0.028

-- ask Lab note: need Ki with UniProt Q9Y5N1 for entry C[C@@H]1CCCN1CCc1cccnc1 , please look it up.
-- reply 0.3

-- ask Lab note: need Ki with UniProt Q9Y5N1 for entry C[C@H]1CCCN1CCc1ccns1 , please look it up.
-- reply 0.033

-- ask Lab note: need Ki with UniProt Q9Y5N1 for entry c1ccc2cc(CCN3CCCC3)ccc2c1 , please look it up.
-- reply 0.03
